B1: CPEB3 Ribozyme (parent)
chain: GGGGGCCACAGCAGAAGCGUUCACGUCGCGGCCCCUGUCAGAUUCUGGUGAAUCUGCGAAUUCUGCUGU

- Variants of: B1
- experimentalProtocol: self-cleavage, relative activity (ratio to wild type); higher = more cleavage; co-transcriptional
Respond with 1 for self-cleavage values of 0.4 and above, 0 for values below.

sequenceentry="GGGGGCCACAGCAAAAGCGUUCACGUCGCGGCCCCUGUCAAAUUCUGGUGAAUCUGCGAAUUCUGCUGU [G14A G41A]" class=0
sequenceentry="GGAGGCCAGAGCAGAAGCGUUCACGUCGCGGCCCCUGUCAGAUUCUGGUGAAUCUGCGAAUUCUGCUGU [G3A C9G]" class=1
sequenceentry="GGGGGCCACAGUAGAAGCGUUCACUUCGCGGCCCCUGUCAGAUUCUGGUGAAUCUGCGAAUUCUGCUGU [C12U G25U]" class=0
sequenceentry="GGGGGCCACAGCAGAAGCGGUCACGUCGCGGCCCCUGUCAUAUUCUGGUGAAUCUGCGAAUUCUGCUGU [U20G G41U]" class=0
sequenceentry="GGGGGCCACAGCAGAAGCGUUCACGUCGCUGCCCCUGUCAGAUUCUGGUGAAUCUGCGAAUUCUGCUCU [G30U G68C]" class=1
sequenceentry="GGGGGCCACAGCAGAAGCGUUCACGUCGCGGCCCCUAUCAGAUUCUGGUGAAUCUCCGAAUUCUGCUGU [G37A G56C]" class=0
sequenceentry="GGGGGCCACAGCAGAAGCGUUCACGUCGCGGCCCCUGUCAGUUUCUGGUGAAUCGGCGAAUUCUGCUGU [A42U U55G]" class=0
sequenceentry="GGGGGCCACAGCAGACGCGUUCACGUCGAGGCCCCUGUCAGAUUCUGGUGAAUCUGCGAAUUCUGCUGU [A16C C29A]" class=0
sequenceentry="GGGGGCAACAGCAGAAGCGUUCACGUCGCGGCCCCUGUCAGAUUCUGGUGAAUCUGCGAAUUCUGCUGU [C7A]" class=1
sequenceentry="GGGGGCCACAGCAGAAGCGUUCACGUCGCGGCCCCUGUCCGAGUCUGGUGAAUCUGCGAAUUCUGCUGU [A40C U43G]" class=0
sequenceentry="GGGGGCCACAGCAGAAGUGUUCACGUCGCGGCCCCUGUCAGAUUCUGGUGAAUCUGCGAAUUCUGCUGU [C18U]" class=1
sequenceentry="GGGGGCCACAGCAGAAGGGUUCACGUCGCGGCCCCUGUCAGAUUCUGGUGAAUCUGAGAAUUCUGCUGU [C18G C57A]" class=0
sequenceentry="GGGGGCCACAGCAGAAGCGUUCACGUCGCGGCCCCUGUCAGAUUCUCGUGAAUCUGCGAAUUCUGAUGU [G47C C66A]" class=1
sequenceentry="GGGGGCCACAGCAGAAGCGUUCACGUCGCGGCCCCUGUGAGAUUCUGAUGAAUCUGCGAAUUCUGCUGU [C39G G48A]" class=1
sequenceentry="GGGGGCCACAGCAGAAGCGUUCAAGUCGCGGCCCCUGUCAGAUUAUGGUGAAUCUGCGAAUUCUGCUGU [C24A C45A]" class=1
sequenceentry="GGGGACCACAGCAGAAGCGUUCACGUCGCGGCCCCUGUCAGAUUCUGGUGAAUCUGCGAAUUAUGCUGU [G5A C63A]" class=1
sequenceentry="GGGGGCCACAUCAGAAGCGUUCACGUCGCGGCCCCUGUCAGAUUCUGGUGAAUCUGCGAAUUGUGCUGU [G11U C63G]" class=0
sequenceentry="GGGGGCCACAGCAGAAGCGUUCACGUCGCGGCCCGUGUCAGAUUCUGGUGAAUCUACGAAUUCUGCUGU [C35G G56A]" class=0
sequenceentry="GGGGGCCACAGCAGCAGCGUUCACGUCGCGGCCCCUGUCAGAUUCUGGUGAAUCUACGAAUUCUGCUGU [A15C G56A]" class=1
sequenceentry="GGGGGCCCCAGCAGAAGCGUUCACGUCGCGGCCCCUGUCAGAUUCUGGUGAAUCUGCGAUUUCUGCUGU [A8C A60U]" class=1
sequenceentry="GGGGGCCACAGCAGAAGCGUUCACGUCGCGGCCCCUGCCAGAUUUUGGUGAAUCUGCGAAUUCUGCUGU [U38C C45U]" class=1
sequenceentry="GGGGGCCACAGCAGAAGCGUUCACGUCGCGGCCCCUGUCAGAUACUGGUGAAUCUGCGAAUUCUGCUUU [U44A G68U]" class=1
sequenceentry="GGGGGCAACAGCAGAAGCGUUCACGUCGCGGCCCCUGUCAGAUUCUGGCGAAUCUGCGAAUUCUGCUGU [C7A U49C]" class=1
sequenceentry="CGGGGCCACAGCAAAAGCGUUCACGUCGCGGCCCCUGUCAGAUUCUGGUGAAUCUGCGAAUUCUGCUGU [G1C G14A]" class=0
sequenceentry="GGGGGCCACAGCAGAAGCGUUCACGUCGCGGCCCCUGUCAGAUUCUGGUGAAUCUGCGUAUUCGGCUGU [A59U U64G]" class=1
sequenceentry="GGGGGCCACAGCAGAAUCGUUCACGUCGCGGCCCCUGUCAGAUUCUGGUGGAUCUGCGAAUUCUGCUGU [G17U A51G]" class=1
sequenceentry="GGGGGCCACAGCAGAAGCGUUCACGUCGCGGCGCCUGUCAGAUUCUGGUGAAUCUGAGAAUUCUGCUGU [C33G C57A]" class=0
sequenceentry="GGGGGCCACAGCAGAAGCCUUCACGUCGCGGCCCCUGUCAGAUUCUGGUGACUCUGCGAAUUCUGCUGU [G19C A52C]" class=0
sequenceentry="GGGGGACACAGCAGAAGCGUUCAAGUCGCGGCCCCUGUCAGAUUCUGGUGAAUCUGCGAAUUCUGCUGU [C6A C24A]" class=0
sequenceentry="GGGGGCCACAGCAGAAGCGUUCACGUCGCGGCCCCUGUCAGAAUCUGGUGAAUCUGCGAAUGCUGCUGU [U43A U62G]" class=1
sequenceentry="GGGGGCCACAGCAGAAGCGUUCACGUCGCGGACCCUGUCAGACUCUGGUGAAUCUGCGAAUUCUGCUGU [C32A U43C]" class=1
sequenceentry="GGGGGCAACAGCAGAAGCGUUCACGUCGCGGCCCCUGUCCGAUUCUGGUGAAUCUGCGAAUUCUGCUGU [C7A A40C]" class=0
sequenceentry="GGGGGCCACAGCAGAAGCGUUCACGUCGCGGCCCCUGUCAGAUUCUGGUGAAUCUGCGAGUCCUGCUGU [A60G U62C]" class=1
sequenceentry="GGGGGCCACAGCAGAAGCGUUCACGUCGCGGUCCCUGUCAGAUUCUGGUGAAUCUGCAAAUUCUGCUGU [C32U G58A]" class=1
sequenceentry="GGGGGCCACAGCAGAAGCGUUCACGUCGCGGGCCCUGACAGAUUCUGGUGAAUCUGCGAAUUCUGCUGU [C32G U38A]" class=1
sequenceentry="GGGGGCCACAGCAGAAGCGUUUACGUCGCGGCCCCUGUAAGAUUCUGGUGAAUCUGCGAAUUCUGCUGU [C22U C39A]" class=0
sequenceentry="GGGGGCCACAGCAGAAGCGGUCACGUCGCGGCCCCUGUCAGAUUCUGGUGAAUCUACGAAUUCUGCUGU [U20G G56A]" class=0
sequenceentry="GCGGGCCACAGCAGAAGCGUACACGUCGCGGCCCCUGUCAGAUUCUGGUGAAUCUGCGAAUUCUGCUGU [G2C U21A]" class=0
sequenceentry="GGGGGCCACAGCAGAAGCGUUCACGUCGCGGCCCCUGUCAGACUCUGGUGAAUCUGCGGAUUCUGCUGU [U43C A59G]" class=1
sequenceentry="UGGGGCCACAGCAGAAGCGUUCACGUCGCGGCACCUGUCAGAUUCUGGUGAAUCUGCGAAUUCUGCUGU [G1U C33A]" class=0
sequenceentry="GGGGGCCACAGCAGAAGCGUUCACGUCGCGGCCCCUGUCCGAUUUUGGUGAAUCUGCGAAUUCUGCUGU [A40C C45U]" class=1
sequenceentry="GGGGGCCACAGCAGAAGCGUUCACGUCGCGGCGCCUGUCAGAUUCUGGUGAAUCUGCGAAUUCUGCUGG [C33G U69G]" class=1
sequenceentry="GGGGGCCACAGCAGAAGCUUUCACGUCGCGGCCCCUGGCAGAUUCUGGUGAAUCUGCGAAUUCUGCUGU [G19U U38G]" class=0
sequenceentry="GGGGGCCACAGUAGAAGCGUUCACGUCGCGGCCCCGGUCAGAUUCUGGUGAAUCUGCGAAUUCUGCUGU [C12U U36G]" class=0
